# SYSTEM: protein kinase D2 (PKD2) (Homo sapiens, UniProt Q9BZL6)
# Construct: This assay is performed with full length wild-type enzyme purchase from Invitrogen; purchased Invitrogen
# Sequence (Q9BZL6 whole entry): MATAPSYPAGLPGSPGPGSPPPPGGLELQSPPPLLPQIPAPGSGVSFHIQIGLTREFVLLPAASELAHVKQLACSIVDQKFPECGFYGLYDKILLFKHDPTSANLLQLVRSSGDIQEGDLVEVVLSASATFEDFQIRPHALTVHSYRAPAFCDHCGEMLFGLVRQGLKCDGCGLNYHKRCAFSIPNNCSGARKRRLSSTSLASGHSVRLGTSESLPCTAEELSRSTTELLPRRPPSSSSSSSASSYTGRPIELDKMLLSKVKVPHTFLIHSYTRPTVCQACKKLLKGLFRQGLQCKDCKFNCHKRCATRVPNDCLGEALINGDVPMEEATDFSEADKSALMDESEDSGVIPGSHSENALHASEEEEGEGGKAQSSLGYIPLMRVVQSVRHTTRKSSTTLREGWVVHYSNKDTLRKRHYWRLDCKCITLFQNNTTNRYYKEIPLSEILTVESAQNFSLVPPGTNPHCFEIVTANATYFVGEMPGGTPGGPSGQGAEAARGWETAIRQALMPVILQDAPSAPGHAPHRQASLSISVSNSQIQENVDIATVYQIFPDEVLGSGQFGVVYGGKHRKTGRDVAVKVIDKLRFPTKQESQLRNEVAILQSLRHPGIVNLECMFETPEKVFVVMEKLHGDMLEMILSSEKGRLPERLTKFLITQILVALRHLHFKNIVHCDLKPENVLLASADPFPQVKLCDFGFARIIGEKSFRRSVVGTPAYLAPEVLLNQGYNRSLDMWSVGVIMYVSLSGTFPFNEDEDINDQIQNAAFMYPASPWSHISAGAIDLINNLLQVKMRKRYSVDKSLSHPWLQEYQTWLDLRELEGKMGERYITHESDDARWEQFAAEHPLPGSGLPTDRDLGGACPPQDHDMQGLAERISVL
# EXPERIMENT_NOTES: PKD2 TR-FRET (LANCE) kinase assay
# Assay type: biochemical
# SETTINGS: full length wild-type enzyme, 20 μM ATP; read-out: Inhibitory Activity PKD2
# From the text: The assay to measure protein kinase D2 (PKD2) activity is a time-resolved fluorescence resonance transfer (TR-FRET) assay using PerkinElmer's LANCE™ technology. In this case, a biotinylated syntide-2 peptide is used as the substrate in this reaction. Phosphorylation of the syntide-2 substrate is detected by a specific antibody that recognizes the phosphorylated peptide. A second fluorophore, APC, is conjugated to streptavidin that binds the biotinylated syntide-2 peptide. […]
ASSAY_METRIC: IC50 (nM)
Give bare numbers, in nM.

INSERT INTO measurements (compound, unit_text, measured_value) VALUES
  ('CN(C)CCNc1nc(-c2ccnc(NC3CCCCC3)c2)cc2cnccc12', 'nM', 259);

Batch request: IC50 per item, same order as input.
1. OCCNc1nc(-c2ccnc(NC3CCCCC3)c2)cc2cnccc12
2. c1ccc(Nc2cc(-c3cc4cnccc4c(N4CCNCC4)n3)ccn2)cc1

[1370, 40]
